Tested on: Candida albicans
test.description: Antifungal activity against Candida albicans 2 at 60 ug/disc after 24 hrs by disc diffusion method
Format: functional
measurement.conditions: read-out: IZ
Below is a list of entries, each paired with its recorded zone of inhibition at 60 µg/disc value.
# output: numeric value plus its unit

Example entries and their recorded answers appear below.
- smiles.entry: "N#Cc1c(N)nc2c(c1-c1ccc(F)cc1)C(=O)CCC2"
  target.under.test: "Candida albicans"
  zone of inhibition at 60 µg/disc: "4 mm"
- smiles.entry: "N#Cc1c(N)nc2c(c1-c1cccc(NC(=O)Nc3cccc(-c4c(C#N)c(N)nc5c4C(=O)CCC5)c3)c1)C(=O)CCC2"
  target.under.test: "Candida albicans"
  zone of inhibition at 60 µg/disc: "3 mm"
- smiles.entry: "Cc1ccc(-c2c(C#N)c(N)nc3c2C(=O)CCC3)cc1"
  target.under.test: "Candida albicans"
  zone of inhibition at 60 µg/disc: "4 mm"

Can you look up the measured zone of inhibition at 60 µg/disc of N#Cc1c(N)nc2c(c1-c1ccccc1Cl)C(=O)CCC2 for me? 2 mm

Item N#Cc1c(N)nc2c(c1-c1cccc([N+](=O)[O-])c1)C(=O)CCC2 has what recorded zone of inhibition at 60 µg/disc? 4 mm

zone of inhibition at 60 µg/disc lookup needed for N#Cc1c(N)nc2c(c1-c1cccc(N)c1)C(=O)CCC2 , thanks. 3 mm

Can you share its zone of inhibition at 60 µg/disc? I mean this compound: Cc1ccc(-c2c(C(N)=O)c(N)nc3c2C(=O)CCC3)cc1 2 mm

Consider the compound shown here: COc1ccc(-c2c(C#N)c(N)nc3c2C(=O)CCC3)cc1 What is its recorded zone of inhibition at 60 µg/disc? 3 mm

Which zone of inhibition at 60 µg/disc is reported for this compound? N#Cc1c(N)nc2c(c1-c1ccc(Cl)cc1)C(=O)CCC2 3 mm

I would be grateful if you could share the reported zone of inhibition at 60 µg/disc for N#Cc1c(N)nc2c(c1-c1ccccc1)C(=O)CCC2 . 2 mm

Recorded zone of inhibition at 60 µg/disc of CC(=O)Nc1nc2c(c(-c3ccc(C)cc3)c1C#N)C(=O)CCC2 , please. 3 mm

###

Test system: Candida albicans
test.description: Antifungal activity against Candida albicans 2 at 60 ug/disc after 24 hrs by disc diffusion method
Type: functional
measurement.conditions: read-out: IZ
Quick list: zone of inhibition at 60 µg/disc per entry.
Could you kindly put the unit after your number?

- compound: "C[C@@H]1C[C@@H]([C@H](O)CC2CC(=O)NC(=O)C2)C(=O)[C@@H](C)C1 [CYCLOHEXIMIDE]"
  result: "4 mm"

Look up zone of inhibition at 60 µg/disc: N#Cc1c(N)nc2c(c1-c1cccc(NC(=O)CCN3CCOCC3)c1)C(=O)CCC2 2 mm

Tell me the measured zone of inhibition at 60 µg/disc of C[C@@H]1[C@H](O)[C@@H](C)/C=C/C=C/C=C/C=C/C=C/C=C/C=C/[C@H](O[C@@H]2O[C@H](C)[C@@H](O)[C@H](N)[C@@H]2O)C[C@@H]2O[C@](O)(C[C@@H](O)C[C@@H](O)[C@H](O)CC[C@@H](O)C[C@@H](O)CC(=O)O[C@H]1C)C[C@H](O)[C@H]2C(=O)O [AMPHOTERICIN B] , please. 7 mm
